Origin of values: PubChem BioAssay (NCI)

Test system: RXF 393 renal
Protocol Text: NCI-60 one-dose screen, 48 h
Measurement Context: 10 µM unless noted
About 83,000 compounds went through this panel and 20% of them were active in at least one assay; those are over-represented in the sample as a whole. Activity calls are given as the source filed them. The calls were made as follows: active = growth percent below 10; inactive = the rest.
Lab note: assign the record to one of active, inactive

Consider the worked cases shown below.
COC(=O)C1CC2c3ccccc3C1c1ccccc12 (stereo not drawn): inactive
ClCCN(CCCl)c1ccc(C=NCCc2c[nH]c3ccccc23)cc1: inactive
NCCc1cc(O)c(O)cc1O: inactive
CCN(CC)c1ccc(C=C2C(=O)NC(=S)NC2=O)cc1: active

Identify the outcome logged in this assay for the compound shown: CCN(CC)CCOc1c(C(C)C)cccc1C(C)C
inactive

Identify the outcome logged in this assay for the compound shown: CC(=O)O[C@H]1CCC2(C)C(=CCC3C2CCC2(C)/C(=N/OC(=O)c4ccc(N(CCCl)CCCl)cc4)CCC32)C1 (stereo partly drawn)
inactive

Identify the outcome logged in this assay for the compound shown: COP(=S)(OC)Oc1ccc(SC)c(C)c1
inactive

Identify the outcome logged in this assay for the compound shown: O=C(CI)Nc1ccc(Br)cc1
inactive

---

Tested on: HL-60(TB) leukemia
Protocol Text: NCI-60 one-dose screen, 48 h
Measurement Context: 10 µM unless noted
Compounds without any hit were thinned out: in the full panel of roughly 83,000, 20% have a hit. Activity calls are given as the source filed them. How the source made its calls: active means growth percent below 10; inactive means the rest.
Lab note: assign the record to one of true (active), false (inactive)

CCC1(CC)C(OC)NC(Br)=C(C#N)C1(C#N)C(N)=O (stereo unspecified): false
CCc1nc(N)nc(N)c1C#CC(C)c1cc(-c2ccnc(C)c2)c2oc(C)nc2c1 (stereo unspecified): true
COc1ccc(N2CCN(c3nc(-c4cc(OC)c(OC)c(OC)c4)nc4ccccc34)CC2)cc1: false
S=C(Nc1ccccc1)N1CCCCC1: false
O=C1NC(=O)C(=Cc2cn(Cc3ccccn3)c3ccccc23)C(=O)N1: false
CCCCc1nc(Cl)c(C2CC(c3ccc(Cl)cc3)=NN2c2cc(Cl)cc(Cl)c2)[nH]1 (stereo unspecified): false

Identify the outcome logged in this assay for the molecule shown: C#CCn1cnc2cnc(Nc3cccc(NC(=O)CCl)c3)nc21
true

Identify the outcome logged in this assay for the molecule shown: O=S(=O)(Nc1ccc(F)cc1F)c1ccc(-c2cnc(C3CC3)o2)cc1
true

Identify the outcome logged in this assay for the molecule shown: O=C(Nc1cc(-c2cccnc2)nc(NCCCN2CCOCC2)n1)c1cc(Br)cc(C(F)(F)F)c1
false

Identify the outcome logged in this assay for the molecule shown: CCN(CC)c1ccc(/C=C2\Oc3ccc(O)c(I)c3C2=O)cc1
false

Identify the outcome logged in this assay for the molecule shown: COc1ccc(/C=C(/C2=NCCN2)n2ccc3ccccc32)cc1
false

Identify the outcome logged in this assay for the molecule shown: CCOC(=O)CNS(=O)(=O)CC(=O)c1ccccc1
false

Identify the outcome logged in this assay for the molecule shown: COc1ccc(-c2nc(SCCC(C)C)nc(N/N=C\c3cccc([N+](=O)[O-])c3)c2C#N)cc1
false

Identify the outcome logged in this assay for the molecule shown: C#Cc1ccc(-n2c(/C=C/c3cc(OC)c(OC)c(OC)c3)nc3ncccc3c2=O)cc1
false

Identify the outcome logged in this assay for the molecule shown: C=C[C@@H]1C[C@@H]2Cc3c(C)cc(C)cc3N1O2
true

Identify the outcome logged in this assay for the molecule shown: CCCCCCCCCCCCOB(OCCCCCCCCCCCC)OCCCCCCCCCCCC
false

Identify the outcome logged in this assay for the molecule shown: CC(=O)N1N=C2N(Cc3ccccc3)C(=O)c3c(sc4c3CCCC4)N2C1c1cn(-c2ccccc2)nc1-c1ccc(Cl)cc1 (stereo unspecified)
false

Identify the outcome logged in this assay for the molecule shown: CC(O)/C=C/C=C/C(O)CC/C=C/C(=O)NCC(C)(C)O (stereo unspecified)
false

Identify the outcome logged in this assay for the molecule shown: COc1ccc(-c2nn(-c3cccc(NC(=O)c4cccc(C(F)(F)F)c4)c3)cc2-c2ccncc2)cc1Cl
true

Identify the outcome logged in this assay for the molecule shown: CCOc1ccc(/C=N\N=C\c2ccc(OCC)cc2)cc1
false

Identify the outcome logged in this assay for the molecule shown: O=C(Nc1ccccc1)c1sc(-c2cccc(C(F)(F)F)c2)cc1O
false

---

Tested on: HL-60(TB) leukemia
Protocol Text: NCI-60 one-dose screen, 48 h
Measurement Context: 10 µM unless noted
The panel holds about 83,000 compounds, 20% with a hit somewhere; the sample as a whole holds those more often. Activity calls are given as the source filed them. How the source made its calls: active means growth percent below 10; inactive means the rest.
Lab note: assign the record to one of t = active, f = inactive

CCOC(=O)c1c(C)c2c(n1Cc1ccccc1)CSCC2=O: f
C=C1C(=O)O[C@H]2[C@H]1CC/C(COC(=O)/C=C\C(=O)NCc1ccc(Cn3c(=O)sn(CCCI)c3=O)cc1)=C\CC[C@@]1(C)O[C@@H]21: t
COc1ccc(/C=C/C(=O)CCC(=O)O)cc1OC: f

Identify the outcome logged in this assay for the molecule shown: O=S(O)c1cc(Cl)cc(Cl)c1OCc1ccccc1
f

Identify the outcome logged in this assay for the molecule shown: N#Cc1c2c([nH]c(=O)c1C(N)=O)CCCCC2
f

Identify the outcome logged in this assay for the molecule shown: COc1ccc(-c2ncnc3c2ncn3CC#CCCl)cc1
f

Identify the outcome logged in this assay for the molecule shown: Nc1nc2ncc(CCNc3ccc(C(=O)O)cc3)nc2c(=O)[nH]1
f

---

Tested on: MDA-MB-435 melanoma
Protocol Text: NCI-60 one-dose screen, 48 h (100 = growth as untreated, 0 = no growth, -100 = all killed)
Measurement Context: 10 µM unless noted
This is part of a sample that, as a whole, favours compounds with a hit. Of some 83,000 tested, about 20% had one in any assay.
Recorded measurements of growth, one per entry
Reply with just the number (in %).

O=c1[nH]c2cc(Cl)ccc2n1C1CCN(CCCC(c2ccc(F)cc2)c2ccc(F)cc2)CC1: 18.2
COc1ccc2c(c1)NC1=C(C(=O)OC1)C2c1cc(OC)c(OC)c(OC)c1 (stereo unspecified): -35.5
O=C(O)CNC(=O)c1ccccc1: 100
O=CC(Br)C(Br)c1ccccc1 (stereo unspecified): 99.3
CCOC(=O)/C(C#N)=C/c1ccc(N(CCCl)CCCl)cc1: 94.4

Missing value: growth, MDA-MB-435 melanoma, entry O=S(=O)(Cl)c1ccccc1 (tested in a mixture with another compound) . Fill in?
115

Missing value: growth, MDA-MB-435 melanoma, entry O=C(O)C1(Br)CC12c1ccccc1-c1ccccc12 (stereo unspecified) . Fill in?
108

Missing value: growth, MDA-MB-435 melanoma, entry Nc1cccc2c1Oc1ccccc1O2 . Fill in?
105

Missing value: growth, MDA-MB-435 melanoma, entry CC1(C)N=C(N)N=C(N)N1c1ccc(CCCCc2ccc(S(=O)(=O)F)cc2)c(Cl)c1 . Fill in?
15.7

Missing value: growth, MDA-MB-435 melanoma, entry O=CN1N=C(c2ccccc2)CC1c1sc(N(CCCl)CCCl)nc1Cl (stereo unspecified) . Fill in?
99.2

Missing value: growth, MDA-MB-435 melanoma, entry CCC(CC)(c1ccccc1)C(OC(N)=O)c1ccccc1 (stereo unspecified) . Fill in?
50.6

---

Tested on: SW-620 colon
Protocol Text: NCI-60 one-dose screen, 48 h (100 = growth as untreated, 0 = no growth, -100 = all killed)
Measurement Context: 10 µM unless noted
About 83,000 compounds went through this panel and 20% of them were active in at least one assay; those are over-represented in the sample as a whole.
Recorded measurements of growth, one per entry
Reply with just the number (in %).

Below, 2 molecules whose answers are already recorded.
CCCCN(CCCC)CC(O)c1ccccc1 (stereo not drawn): 102
O=C1NC2(CCNCC2)Nc2ccccc21: 102

Now, please, on to the next molecule.
# lookup: growth of COc1cc(NCCCCCN=C(N)N)c2ncccc2c1
58.9

---

Tested on: DU-145 prostate
Protocol Text: NCI-60 one-dose screen, 48 h (100 = growth as untreated, 0 = no growth, -100 = all killed)
Measurement Context: 10 µM unless noted
About 83,000 compounds went through this panel and 20% of them were active in at least one assay; those are over-represented in the sample as a whole.
Recorded measurements of growth, one per entry
Reply with just the number (in %).

Oc1ccc2c3c1O[C@H]1c4[nH]c5ccccc5c4C[C@@]4(O)C(C2)N(CC2CC2)CC[C@]314: 96.6
CN1C(=O)NC(=O)C(N=Nc2ccc(Cl)cc2)C1=O (centres undefined): 106
CC[C@]12C=CCN3CC[C@@]4(c5ccc(OC)cc5N(C)[C@H]4[C@@](O)(C(=O)OC)[C@@H]1OC(=O)CCCN1CCN(CCCC(=O)O[C@@H]4[C@]5(CC)C=CCN6CC[C@@]7(c8ccc(OC)cc8N(C)[C@H]7[C@@]4(O)C(=O)OC)[C@@H]65)CC1)[C@@H]32: -90.6
Cn1cnnc1[S-].[Au+].c1ccc([PH+](c2ccccc2)c2ccccc2)cc1: 33.6

Missing value: growth, DU-145 prostate, entry OB([O][Hg][c]1ccccc1)[O][Hg][c]1ccccc1 . Fill in?
-73.5

Missing value: growth, DU-145 prostate, entry Nc1c(Br)cc2c3c(cccc13)-c1ccccc1-2 . Fill in?
70

Missing value: growth, DU-145 prostate, entry O=C(CF)N(O)c1ccc(/C=C/c2ccccc2)cc1 . Fill in?
1.13

Missing value: growth, DU-145 prostate, entry CC(C)CCC[C@@H](C)[C@H]1CC[C@H]2[C@@H]3CC=C4C[C@@H](OC(=O)Cc5ccc(N(CCCl)CCCl)cc5)CC[C@]4(C)[C@H]3CC[C@]12C . Fill in?
116

Missing value: growth, DU-145 prostate, entry O=C(O)c1cccc(CCl)c1 . Fill in?
108

Missing value: growth, DU-145 prostate, entry CCCCn1cc(C(=O)/C(C#N)=C/c2cc3ccccc3nc2Cl)c2cc(OC)ccc21 . Fill in?
104

Missing value: growth, DU-145 prostate, entry C[C@]12CC[C@@H]3C4=C(CC[C@H]3[C@@H]1CC[C@@H]2O)CC(=O)CC4 . Fill in?
116

Missing value: growth, DU-145 prostate, entry CCOC(=O)Nc1cc(Cl)c([N+](=O)[O-])c(NC(=O)OCC)n1 . Fill in?
107

Missing value: growth, DU-145 prostate, entry CC1=C(SCCC(=O)OCC(=O)NCCC[Te]c2ccccc2)C(=O)c2ccccc2C1=O . Fill in?
-6.6

Missing value: growth, DU-145 prostate, entry CO[C@@H]1[C@H](OC(=O)NC(=O)CCl)CC[C@]2(CO2)[C@H]1[C@@]1(C)O[C@@H]1CC=C(C)C . Fill in?
59.8
